These data points were gathered from ChEMBL document CHEMBL3271955.

# Measurement Notes: Lipophilicity, log P of the compound
# Type: physicochemical
# Conditions: octanol/water
Measurement Name: logP
Give bare numbers.

Query: Data request, read-out logP, for `O=C(O)c1cnc2ccccc2c1O`
Reply: 0.23
